# ASSAY REMARKS: Single dose PK, phase 1, healthy European men
# Format: in vivo, human
# MEASUREMENT PARAMETERS: male, human, plasma, single SC 0.1 mg, geometric mean
Where a SMILES comes first, the peptide text is derived from it. [ ]: non-standard residue; d: D form. Arg(Me) = CNC(=N)NCCC[C@H](N)C(=O)O; Hyp = O=C(O)[C@@H]1C[C@@H](O)CN1; azaGly = NNC(=O)O
READOUT KIND: CL/F (mL/min)
Quick reminder: number only, in mL/min, skip the unit.

Notebook: CC(=O)O.CNC(=N)NCCC[C@H](NC(=O)[C@H](CC(C)C)NC(=O)NNC(=O)[C@H](Cc1ccccc1)NC(=O)[C@@H](NC(=O)[C@H](CC(N)=O)NC(=O)[C@@H]1C[C@@H](O)CN1C(=O)[C@@H](Cc1ccc(O)cc1)NC(C)=O)[C@@H](C)O)C(=O)N[C@@H](Cc1c[nH]c2ccccc12)C(N)=O [API-MA] (Ac-[dY][Hyp]NTF[azaGly]L[Arg(Me)]W-NH2) , CL/F read as 423

Values compiled from patent US11013780B2.
